- protocol: In vivo pharmacokinetics in rats, oral
- Parameters: species or system SD rats
- reported.conditions: rat, plasma; SD rats, PO, 1 mg/kg
- Protocol: The compounds of the present disclosure were formulated with […]+90% 100 mM glycine-64 mM NaOH, and orally administered to fasted SD rats at a dose of 1 mg/kg or 5 mg/kg, respectively. […] The plasma concentrations of the compounds were determined by LC-MS/MS. […]
experimental.readout: Cmax (ng/mL)
One number for each entry, in ng/mL.

Use the examples below as a reference point.
{"columns": ["molecule", "readout.units", "Cmax"],
 "data": [
  ["Cc1cc(-n2nc3c(c2-n2ccn(-c4ccc5c(cnn5C)c4F)c2=O)[C@H](C)N(C(=O)c2cc4cc([C@H]5CCOC(C)(C)C5)ccc4n2[C@@]2(c4noc(=O)[nH]4)C[C@@H]2C)CC32CC2F)cc(C)c1F (some centres unmarked)", "ng/mL", 216],
  ["Cc1cc(-n2nc3c(c2-n2ccn(-c4ccc5c(cnn5C)c4F)c2=O)[C@H](C)N(C(=O)c2cc4cc([C@H]5CCOC(C)(C)C5)ccc4n2[C@@]2(c4noc(=O)[nH]4)C[C@@H]2C)CC32CC2)cc(C)c1F", "ng/mL", 213],
  ["Cc1cc(-n2nc3c(c2-n2ccn(-c4ccc5c(cnn5C)c4F)c2=O)[C@H](C)N(C(=O)c2cc4cc([C@H]5CCOC(C)(C)C5)ccc4n2[C@@]2(c4noc(=O)[nH]4)C[C@@H]2C)CC32CC(F)(F)C2)cc(C)c1F", "ng/mL", 129],
  ["Cc1cc(-n2nc3c(c2-n2ccn(-c4ccc5c(cnn5C)c4F)c2=O)[C@H](C)N(C(=O)c2cc4cc([C@H]5CCOC(C)(C)C5)ccc4n2[C@@]2(c4noc(=O)[nH]4)C[C@@H]2C)CC32C[C@H]2C)cc(C)c1F (some centres unmarked)", "ng/mL", 160]
]}

Using the record for `C=C1CC2(C1)CN(C(=O)c1cc3cc([C@H]4CCOC(C)(C)C4)ccc3n1[C@@]1(c3noc(=O)[nH]3)C[C@@H]1C)[C@@H](C)c1c2nn(-c2cc(C)c(F)c(C)c2)c1-n1ccn(-c2ccc3c(cnn3C)c2F)c1=O` , report its Cmax.
110

Sourced from patent US12419874B2
